# Assay comment: NCI Yeast Anticancer Drug Screen. Data for the rad50 strain (AID 155);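 further: 0% = growth of vehicle-only cultures of the same strain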
# Setup conditions: S. cerevisiae rad50 strain growth inhibition; at 50.0 µM; hits give high values
About 79,000 compounds went through this panel and 15% of them were active in at least one assay; those are over-represented in the sample as a whole. Where a SMILES comes first, the peptide text is derived from it. [ ]: non-standard residue; d: D form. Hiv = CC(C)[C@H](O)C(=O)O
Experimental readout: growth inhibition (%)
Kindly provide the numeric value in % only, without the unit symbol.

In [3]: df
Out[3]:
                                   molecule  quantitative_result
0          N#CC1=CCc2ccccc2N1C(=O)Oc1ccccc1                 58.5
1                  COc1ccc(O)c2c(=O)ccccc12                  8.5
2  Cc1cc2c(cc1Cl)SC(NNc1ccc([N+](=O)[O-])cc1)=NS2(=O)=O                 34.6
3  NC(=O)C(O)(c1ccc(Br)cc1)C(Cl)Cl (stereo not drawn)                 4.65
4  C/C(CC(=O)NCCc1ccccc1)=N\NS(=O)(=O)c1ccc(C)cc1                 37.1

Entry O=C1c2ccccc2OCC1CS(=O)(=O)CC1COc2ccccc2C1=O (stereo not drawn) — recorded growth inhibition = -9.5

Entry Cc1ccc(NC(=O)/C(CC(=O)c2sc(Nc3ccccc3Cl)nc2C)=N\Nc2ccc([N+](=O)[O-])cc2[N+](=O)[O-])c(C)c1 — recorded growth inhibition = -1

Entry CCN(CC)CCCNC(Cc1ccccc1)c1ccc(OC)cc1 (stereo not drawn) — recorded growth inhibition = -1.85

Entry CC(C)[C@@H]1OC(=O)[C@@H](C)NC(=O)[C@@H]2CCCN2C1=O (cyclo([Hiv]-Pro-[dA])) — recorded growth inhibition = -38.2

Entry CS(=O)(=O)CC(O)(c1ccc(Cl)cc1)c1ccccn1 (stereo not drawn) — recorded growth inhibition = 11.5

Entry Cc1cc(N(C)c2ccccc2)nc(N(C)c2ccccc2)n1 — recorded growth inhibition = -24.4

Entry FCCN(CCF)Cc1ccc2c(c1)OCO2 — recorded growth inhibition = -4.8

Entry CN(C)CC1CCCC/C1=N\OC(=O)c1ccccc1 (stereo not drawn) — recorded growth inhibition = -6.9

###

# Assay comment: NCI Yeast Anticancer Drug Screen. Data for the rad50 strain (AID 155);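 further: 0% = growth of vehicle-only cultures of the same strain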
# Setup conditions: S. cerevisiae rad50 strain growth inhibition; at 50.0 µM; hits give high values
The panel holds about 79,000 compounds, 15% with a hit somewhere; the sample as a whole holds those more often. Activity calls are given as the source filed them. Rule as the data show it: active = growth inhibition above about 70%; inactive = the rest.
Experimental readout: growth inhibition

Here are 8 compounds together with their reported answers.
>>> df
                                   compound             result
0  O=S(=O)(NC1CCC(CC2CCCCC2)CC1)c1ccccc1 (stereo not given)       81% (active)
1                          O=C(O)C=C1CCCCC1   4.35% (inactive)
2  CC(=O)OCCC12CCC(CC1Cl)C2(C)C (stereo not given)  -1.45% (inactive)
3                   O=C(O)c1cccc(F)c1C(=O)O   -4.5% (inactive)
4  COC(=O)C1CCCCC1C(=O)OC (stereo not given)  -11.1% (inactive)
5                CC(=O)Nc1nnc(SCc2ccccc2)s1      9% (inactive)
6  CC[C@@H]1CN(C)[C@H]2Cc3c([nH]c4ccccc34)C(=O)C[C@H]1C2C(=O)OC (stereo not given in full)   13.5% (inactive)
7  O=[N+]([O-])c1ccc(N=N/C(Cc2ccccc2)=N\Nc2ccccc2)cc1   31.4% (inactive)

Entry CCCCCCCCCCCCCC(=O)CC — recorded growth inhibition = 56.3% (inactive)

Entry C=CC1C(OC2OC(CO)C(O)C(O)C2O)OC=C(C(=O)OC)C1CC1CC(=O)CC(CCc2ccc(O)cc2)O1 (stereo not given) — recorded growth inhibition = 1.8% (inactive)

Entry CCCC(CNC(C)=O)(c1ccccc1)C1CCCCC1 (stereo not given) — recorded growth inhibition = -10.7% (inactive)

Entry O=S(=O)(Nc1nccs1)c1ccc(NCc2c3ccccc3nc3ccccc23)cc1 — recorded growth inhibition = 62.2% (inactive)

Entry COc1ccc(NC(=S)Nc2ccccc2)cc1 — recorded growth inhibition = 4.8% (inactive)

Entry CCN(CC)c1ccc(NCC(O)c2cc(Cl)ccc2OC)cc1 (stereo not given) — recorded growth inhibition = -11.8% (inactive)
